assay: Permeability of the compound in aqueous buffer at pH 6.5 incubated for 2 hrs by PAMPA based HPLC analysis
I'd appreciate it if you marked entries TRUE when Papp at 2 h is lower than 20 ×10⁻⁶ cm/s and FALSE when it is not.

Some solved entries appear below for comparison.
COMPOUND	CATEGORY
COc1cc(Nc2ncc(CCc3c(F)c(OC)cc(OC)c3F)cn2)ccc1N1CCC(N(C)C2CCN(C)CC2)CC1.Cl.Cl.Cl.Cl	TRUE
COc1cc(OC)c(F)c(COc2cnc(Nc3ccc(N4CCC(N5CCN(C)CC5)CC4)c(C)c3)nc2)c1F	FALSE
COc1cc(Nc2ncc(OCc3c(F)c(OC)cc(OC)c3F)cn2)ccc1N1CCN(C)CC1	TRUE
CCOc1cc(Nc2ncc(OCc3c(F)c(OC)cc(OC)c3F)cn2)ccc1N1CCC(N2CCN(C)CC2)CC1	TRUE
COc1cc(OC)c(F)c(COc2cnc(Nc3cnn(CCN4CCNCC4)c3)nc2)c1F.Cl.Cl.Cl	TRUE

Bench note: check whether "COc1cc(Nc2ncc(CCc3c(F)c(OC)cc(OC)c3F)cn2)ccc1N1CCN(C)CC1" shows Papp at 2 h below 20 ×10⁻⁶ cm/s FALSE

What do we get for "COc1cc(OC)c(F)c(COc2cnc(Nc3cnn(CCNC4CCN(C)CC4)c3)nc2)c1F.Cl.Cl.Cl" ? TRUE

What do we get for COc1cc(OC)c(F)c(COc2cnc(Nc3cnn(CCO)c3)nc2)c1F [ASP-5878] ? TRUE

What do we get for "COc1cc(Nc2ncc(OCc3c(F)c(OC)cc(OC)c3F)cn2)ccc1N1CCC(N2CCN(C)CC2)CC1" ? TRUE

Reference source: ChEMBL document CHEMBL5120772
